biological target: human MRGPRX4-83L (Homo sapiens); construct: host or cells: CHO β-arrestin cells; assay: Calcium assay (human MRGPRX4 83L), recombinant astrocytes; assay type: cell-based
observation type: EC50 (nM)
Quick reminder: number only, in nM, skip the unit.

The measured EC50 associated with C#CCn1c(=O)c2c(nc(CCc3ccccc3Br)n2CCCl)n(CCCCP(=O)(O)O)c1=O reads 2.28

---

target: MRGPRX4-83S (Homo sapiens, UniProt Q96LA9, L83S); assay: β-arrestin assay (CHO β-arrestin human MRGPRX4-83S); type: cell-based; set-up: host or cells: CHO β-arrestin cells
Sequence (Q96LA9 whole entry L83S): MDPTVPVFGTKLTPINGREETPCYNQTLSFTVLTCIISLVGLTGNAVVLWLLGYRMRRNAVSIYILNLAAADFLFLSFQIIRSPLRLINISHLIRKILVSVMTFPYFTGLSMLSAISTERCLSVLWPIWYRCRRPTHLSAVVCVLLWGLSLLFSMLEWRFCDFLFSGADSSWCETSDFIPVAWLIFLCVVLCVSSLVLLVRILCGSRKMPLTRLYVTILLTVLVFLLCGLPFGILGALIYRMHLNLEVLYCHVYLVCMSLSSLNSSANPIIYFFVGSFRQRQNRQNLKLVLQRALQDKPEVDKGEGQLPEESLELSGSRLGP
observation type: pEC50
Just so you know, pEC50 here is -log10 of the concentration in molar units; reply with that number alone.

The measured pEC50 associated with C#CCn1c(=O)c2c(nc(CCc3ccccc3Br)n2CCCl)n(CCCCP(=O)(O)O)c1=O reads 9.52

---

target: human MRGPRX4-83L (Homo sapiens, UniProt Q96LA9); construct: host or cells: CHO β-arrestin cells; assay: Calcium assay (human MRGPRX4 83L), recombinant astrocytes; type: cell-based; conditions: Table 1; calcium mobilization, MRGPRX4-83L; read-out: EC50 ± SEM
Sequence (Q96LA9 whole entry): as the sequence (Q96LA9 whole entry L83S) above, with S83L counted along it
// values below are reported EC50

The measured EC50 associated with C#CCn1c(=O)c2[nH]c(/C=C/c3cccc(OC)c3)nc2n(CCCCP(=O)(O)O)c1=O reads > 10 µM

The measured EC50 associated with C#CCn1c(=O)c2c(nc(CCc3ccccc3Br)n2CCO)n(CCCCP(=O)(O)O)c1=O reads 0.00186 µM

---

molecular target: MRGPRX4-83S (Homo sapiens, UniProt Q96LA9, L83S); test: β-arrestin assay (CHO β-arrestin human MRGPRX4-83S); assay type: cell-based; set-up: host or cells: CHO β-arrestin cells; details: Table 3; efficacy based on 100 nM B-16 (set as 100%); read-out: Emax
// values below are reported Emax
Quick reminder: number only, in %, skip the unit.

Below are worked cases with known answers.
C#CCn1c(=O)c2c(nc(CCc3ccccc3I)n2CC)n(CCCCP(=O)(O)O)c1=O :: 89
C#CCn1c(=O)c2c(nc(CCc3ccc(OC)cc3)n2CC2CCCC2)n(CCCCP(=O)(O)O)c1=O :: 96

# input for lookup
The measured Emax associated with C#CCn1c(=O)c2c(nc(CCc3ccccc3Br)n2C(C)CC)n(CCCCP(=O)(O)O)c1=O (stereo not drawn) reads 103

---

target: human MRGPRX4-83L (Homo sapiens, UniProt Q96LA9); construct: host or cells: CHO β-arrestin cells; assay: Calcium assay (human MRGPRX4 83L), recombinant astrocytes; type: cell-based; conditions: Table 1; calcium mobilization, MRGPRX4-83L; read-out: EC50 ± SEM
pEC50: −log10 of the molar value.
# cutoff 7 applies to pEC50; >= gives yes (1), < gives no (0)

Please review the entries below; each comes with its answer.
C#CCn1c(=O)c2c(nc(CCc3ccccc3Br)n2C)n(CCCCP(=O)(O)O)c1=O :: yes (1)
CCOP(=O)(CCCCn1c(=O)n(CC)c(=O)c2[nH]c(COc3ccccc3)nc21)OCC :: no (0)
C#CCn1c(=O)c2[nH]c(CCc3ccc(OC)c(OC)c3)nc2n(CCCCP(=O)(O)O)c1=O :: no (0)

Answer whether pEC50 of C#CCn1c(=O)c2[nH]c(CCc3cccc(OC)c3)nc2n(CCCCP(=O)(O)OCC)c1=O is greater than or equal to 7. yes (1)

Answer whether pEC50 of C#CCn1c(=O)c2[nH]c(CCc3ccccc3)nc2n(CCCCP(=O)(O)O)c1=O is greater than or equal to 7. no (0)

Answer whether pEC50 of C#CCn1c(=O)c2c(nc(CCc3cccc(OC)c3)n2C)n(CCCCP(=O)(O)O)c1=O is greater than or equal to 7. no (0)

Answer whether pEC50 of C#CCn1c(=O)c2c(nc(CCc3cccc(C(F)(F)F)c3)n2C)n(CCCCP(=O)(O)O)c1=O is greater than or equal to 7. yes (1)

---

target: human MRGPRX4-83L (Homo sapiens); construct: host or cells: CHO β-arrestin cells; test: β-arrestin assay (CHO β-arrestin ARMS1-ProLink 2 human MRGPRX4 83L); assay type: cell-based; settings: Table 1; β-arrestin recruitment, CHO cells, MRGPRX4-83L; means of 3-4 experiments; read-out: EC50 ± SEM
// values below are reported EC50

CCn1c(=O)c2[nH]c(CCc3cccc(OC)c3)nc2n(CCCCP(=O)(O)O)c1=O [B-12] :: > 10 µM
C#CCn1c(=O)c2[nH]c(CCc3cccc(Br)c3)nc2n(CCCCP(=O)(OCC)OCC)c1=O [C-3] :: > 10 µM
CCCn1c(=O)c2[nH]c(-c3ccccc3)nc2n(CCCCP(=O)(O)O)c1=O [J-3] :: > 10 µM

The measured EC50 associated with C#CCn1c(=O)c2[nH]c(/C=C/c3cccc(OC)c3)nc2n(CCCCP(=O)(O)O)c1=O [J-1] reads > 10 µM

The measured EC50 associated with C#CCn1c(=O)c2[nH]c(CCc3ccccc3OC)nc2n(CCCCP(=O)(OCC)OCC)c1=O [C-1] reads > 10 µM

The measured EC50 associated with C#CCn1c(=O)c2[nH]c(CCc3ccc(OC)cc3OC)nc2n(CCCCP(=O)(O)O)c1=O [B-10] reads 14.5 µM

The measured EC50 associated with C#CCn1c(=O)c2[nH]c(CCc3ccccc3)nc2n(CCCCP(=O)(O)O)c1=O [B-1] reads > 10 µM

The measured EC50 associated with C#CCn1c(=O)c2c(nc(CCc3ccccc3Br)n2C)n(CCCCP(=O)(O)OCC)c1=O [D-1] reads 0.395 µM

---

biological target: human MRGPRX4-83L (Homo sapiens); construct: host or cells: CHO β-arrestin cells; test: Calcium assay (human MRGPRX4 83L), recombinant astrocytes; format: cell-based; settings: Table 4; calcium mobilization, MRGPRX4-83L; read-out: EC50 ± SEM
// values below are reported EC50
Quick reminder: number only, in nM, skip the unit.

Below are worked cases with known answers.
C#CCn1c(=O)c2c(nc(CCc3ccccc3Br)n2CC)n(CCCCCCP(=O)(O)O)c1=O :: 474
C#CCn1c(=O)c2c(nc(CCc3ccccc3Br)n2CCN)n(CCCCP(=O)(O)O)c1=O :: 79.8
C#CCn1c(=O)c2[nH]c(CCc3ccccc3Br)nc2n(CCCCCP(=O)(O)O)c1=O :: 604
C#CCn1c(=O)c2c(nc(CCc3ccccc3F)n2CC)n(CCCCP(=O)(O)O)c1=O :: 15.5

The measured EC50 associated with C#CCn1c(=O)c2c(nc(CCc3ccccc3I)n2CC)n(CCCCP(=O)(O)O)c1=O reads 0.389

The measured EC50 associated with C#CCn1c(=O)c2c(nc(CCc3ccc(Br)cc3)n2CC2CCCC2)n(CCCCP(=O)(O)O)c1=O reads 267

The measured EC50 associated with C#CCn1c(=O)c2c(nc(CCc3ccccc3Br)n2CC)n(CCCCCP(=O)(O)O)c1=O reads 20.1

---

biological target: MRGPRX4-83S (Homo sapiens, UniProt Q96LA9, L83S); test: Calcium assay (human glioblastoma LN229 cells expressing the MRGPRX4-83S); type: cell-based; set-up: LN229 glioblastoma cells natively expressing the MRGPRX4-83S; endogenous in cells; host or cells: LN229 human glioblastoma cells; details: LN-229; Table 2; efficacy based on 30 μM H-1 (set as 100%); read-out: Emax
observation type: Emax (%)
Quick reminder: number only, in %, skip the unit.

Below are worked cases with known answers.
C#CCn1c(=O)c2c(nc(CCc3cccc(OC)c3)n2C)n(CCCCP(=O)(O)O)c1=O [B-15] :: 132
C#CCn1c(=O)c2[nH]c(CCc3cccc(C)c3)nc2n(CCCCP(=O)(O)O)c1=O [B-5] :: 96
CCn1c(=O)c2[nH]c(CCc3cccc(OC)c3)nc2n(CCCCP(=O)(O)O)c1=O [B-12] :: 94

# input for lookup
The measured Emax associated with CCCn1c(=O)c2c(nc(CCc3cccc(OC)c3)n2C)n(CCCOP(=O)(O)O)c1=O [H-2, reference compound] reads 88

---

molecular target: MRGPRX4-83S (Homo sapiens, UniProt Q96LA9, L83S); assay: Calcium assay (human glioblastoma LN229 cells expressing the MRGPRX4-83S); type: cell-based; set-up: LN229 glioblastoma cells natively expressing the MRGPRX4-83S; endogenous in cells; host or cells: LN229 human glioblastoma cells; conditions: Table 3; calcium mobilization, LN229 cells, MRGPRX4-83S; read-out: EC50 ± SEM
observation type: pEC50
Just so you know, pEC50 here is -log10 of the concentration in molar units; reply with that number alone.

Below are worked cases with known answers.
C#CCn1c(=O)c2c(nc(CCc3ccc(OC)cc3)n2CC2CCCC2)n(CCCCP(=O)(O)O)c1=O [B-41] :: 7.29
C#CCn1c(=O)c2c(nc(CCc3ccc(Br)cc3)n2CC2CCCC2)n(CCCCP(=O)(O)O)c1=O [B-38] :: 8.24
C#CCn1c(=O)c2c(nc(CCc3ccccc3Br)n2CCN)n(CCCCP(=O)(O)O)c1=O [B-51] :: 8.83
C#CCn1c(=O)c2c(nc(CCc3ccccc3Br)n2CC2CCC2)n(CCCCP(=O)(O)O)c1=O [B-45] :: 9.49
C#CCn1c(=O)c2c(nc(CCc3ccccc3C)n2C(C)C)n(CCCCP(=O)(O)O)c1=O [B-48] :: 9.01

# input for lookup
The measured pEC50 associated with C#CCn1c(=O)c2c(nc(CCc3ccccc3Br)n2CC2CCCCC2)n(CCCCP(=O)(O)O)c1=O [B-36] reads 9.10
